- assay-system: KRAS G13C (Homo sapiens (Human), UniProt P01116+P62937, G13C)
- Sequence (P01116 other isoform, or with tags, fused parts or gaps G13C): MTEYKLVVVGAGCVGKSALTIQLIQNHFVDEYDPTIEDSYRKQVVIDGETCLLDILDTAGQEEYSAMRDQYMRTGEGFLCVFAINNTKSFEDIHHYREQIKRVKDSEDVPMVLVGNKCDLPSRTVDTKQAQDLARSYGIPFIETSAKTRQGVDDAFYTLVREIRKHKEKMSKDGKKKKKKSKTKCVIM
- Sequence (P62937 whole entry): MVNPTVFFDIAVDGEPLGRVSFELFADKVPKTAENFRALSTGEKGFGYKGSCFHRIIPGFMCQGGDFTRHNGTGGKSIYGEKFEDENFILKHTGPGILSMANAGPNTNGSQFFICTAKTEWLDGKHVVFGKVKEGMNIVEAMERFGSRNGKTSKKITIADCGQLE
- assay-details: Ras-Raf disruption/FRET/MOA assay (BRAF RBD, Cyclophilin A)
- Format: biochemical
- measurement-context: read-out: KRAS G13C FRET IC50
endpoint-label: IC50

[
  {
    "compound": "CCn1c(-c2cccnc2[C@H](C)OC)c2c3cc(ccc31)-c1cc(O)cc(c1)C[C@H](NC(=O)[C@H](C(C)C)N(C)C(=O)[C@H]1[C@@H]3CNC[C@@H]31)C(=O)N1CCC[C@H](N1)C(=O)OCC(C)(C)C2",
    "endpoint-label": "IC50",
    "measured-result": "100 to 1000 nM"
  },
  {
    "compound": "CCn1c(-c2cccnc2[C@H](C)OC)c2c3cc(ccc31)-c1csc(n1)C[C@H](NC(=O)[C@H](C(C)C)N(C)C(=O)N1C[C@H](N)[C@@H](O)C1)C(=O)N1CCC[C@H](N1)C(=O)OCC(C)(C)C2",
    "endpoint-label": "IC50",
    "measured-result": "100 to 1000 nM"
  },
  {
    "compound": "CCn1c(-c2cccnc2[C@H](C)OC)c2c3cc(ccc31)-c1csc(n1)C[C@H](NC(=O)[C@H](C(C)C)N(CCc1ccncc1)C1CC1)C(=O)N1CCC[C@H](N1)C(=O)OCC(C)(C)C2",
    "endpoint-label": "IC50",
    "measured-result": "100 to 1000 nM"
  },
  {
    "compound": "CCn1c(-c2cccnc2[C@H](C)OC)c2c3cc(ccc31)-c1csc(n1)C[C@H](NC(=O)[C@H](C(C)C)N(C)C(=O)N1CCS(=O)(=O)CC1)C(=O)N1CCC[C@H](N1)C(=O)OCC(C)(C)C2",
    "endpoint-label": "IC50",
    "measured-result": "100 to 1000 nM"
  },
  {
    "compound": "CCn1c(-c2cccnc2[C@H](C)OC)c2c3cc(ccc31)-c1cccc(c1)C[C@H](NC(=O)[C@H](C(C)C)N(C)C(=O)C1COC1)C(=O)N1CCC[C@H](N1)C(=O)OCC(C)(C)C2",
    "endpoint-label": "IC50",
    "measured-result": "1000 to 10000 nM"
  }
]

Report IC50 for CCn1c(-c2ccccc2CCOC)c2c3cc(ccc31)-c1cc(O)cc(c1)C[C@H](NC(=O)[C@H](C(C)C)N(C)C(=O)CNC(=N)N)C(=O)N1CCC[C@H](N1)C(=O)OCC(C)(C)C2 please.
100 to 1000 nM

Report IC50 for CCn1c(-c2cccnc2[C@H](C)OC)c2c3cc(ccc31)-c1csc(n1)C[C@H](NC(=O)[C@H](C(C)C)N(C)C(=O)N1CC([C@H](CO)OC)C1)C(=O)N1CCC[C@H](N1)C(=O)OCC(C)(C)C2 please.
100 to 1000 nM

Report IC50 for CCn1c(-c2cccnc2[C@H](C)OC)c2c3cc(ccc31)-c1cc(O)cc(c1)C[C@H](NS(=O)(=O)C1CS(=O)(=O)C1)C(=O)N1CCC[C@H](N1)C(=O)OCC(C)(C)C2 please.
> 10000 nM

---

IC50 values, listed per item
- assay-system: KRAS G12S (Homo sapiens (Human), UniProt P01116+P62937, G12S)
- Sequence (P01116 other isoform, or with tags, fused parts or gaps G12S, one chain of several): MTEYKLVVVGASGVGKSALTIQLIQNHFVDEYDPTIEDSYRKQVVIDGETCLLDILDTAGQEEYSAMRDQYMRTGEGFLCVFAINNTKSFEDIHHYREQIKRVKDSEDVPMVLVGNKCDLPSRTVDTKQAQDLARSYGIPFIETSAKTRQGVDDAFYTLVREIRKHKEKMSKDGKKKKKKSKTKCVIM
- assay-details: Ras-Raf disruption/FRET/MOA assay (BRAF RBD, Cyclophilin A)
- Assay type: biochemical
- measurement-context: read-out: KRAS G12S FRET IC50

[
  {
    "compound": "CCn1c(-c2cccnc2[C@H](C)OC)c2c3cc(ccc31)-c1csc(n1)C[C@H](NC(=O)[C@H](C(C)C)N(C)C(=O)N1CC(S(C)(=O)=O)C1)C(=O)N1CCC[C@H](N1)C(=O)OCC(C)(C)C2",
    "IC50": "100 to 1000 nM"
  },
  {
    "compound": "CCn1c(-c2cccnc2[C@H](C)OC)c2c3cc(ccc31)-c1cc(O)cc(c1)C[C@H](NC(=O)[C@H](C(C)C)N1CNCC1=O)C(=O)N1CCC[C@H](N1)C(=O)OCC(C)(C)C2",
    "IC50": "1000 to 10000 nM"
  },
  {
    "compound": "CCn1c(-c2cccnc2[C@H](C)OC)c2c3cc(ccc31)-c1cc(O)cc(c1)C[C@H](NC(=O)[C@H](C(C)C)N(C)C(=O)[C@H]1C[C@@H]1F)C(=O)N1CCC[C@H](N1)C(=O)OCC(C)(C)C2",
    "IC50": "100 to 1000 nM"
  }
]

Now for a further molecule.
Report IC50 for CCn1c(-c2cccnc2[C@H](C)OC)c2c3cc(ccc31)-c1csc(n1)C[C@H](NC(=O)[C@H](C(C)C)N(C)C(=O)N1CCC[C@H]1c1ccccc1)C(=O)N1CCC[C@H](N1)C(=O)OCC(C)(C)C2 please.
1000 to 10000 nM
